system: NCI-H23; assay: NCI tumour cell line growth inhibition, 48 h
The source made the active and inactive calls. Rule as the data show it: active = GI50 up to about 1.1 µM and inactive = higher.
Kindly state GI50 for each of the entries shown.

Quick one: GI50 of CCOC1=C2C(=O)OC(=O)C2C2CCCCC2=C1 (stereo unspecified) ?
> 100 µM (inactive)

Quick one: GI50 of `COc1c(C)c(C/C=C(\C)CCCCO[Si](c2ccccc2)(c2ccccc2)C(C)(C)C)c(OC)c(OC)c1OC` ?
19.6 µM (inactive)

Quick one: GI50 of `CCCCCCCCCCCCCCCCC1=CC(=O)C=C(OC)C1=O` ?
62.2 µM (inactive)

Quick one: GI50 of `COc1c(O)c2c3c(cc(C)cc3c1C(C)C)OC2` ?
> 100 µM (inactive)

Quick one: GI50 of `O=C1NC(N2CCOCC2)=N/C1=C\c1ccccc1` ?
> 100 µM (inactive)

Quick one: GI50 of `COc1nc2[nH]ccc2c(=O)n1C` ?
> 100 µM (inactive)

Quick one: GI50 of `CCOC(=O)CCCOc1cc(-c2ccccc2F)nc2cc3c(cc12)OCO3` ?
46.6 µM (inactive)

Quick one: GI50 of `CN(C)CCN(c1ccccn1)c1ccccn1` ?
> 100 µM (inactive)

Quick one: GI50 of `COC(=O)c1c(-c2ccc(Cl)cc2)cc2c3ccccc3n(C)c2c1C(=O)OC` ?
> 100 µM (inactive)

Quick one: GI50 of Cc1cccc(/N=C2\NC(=O)C(CC(=O)Nc3ccc(C)cc3C)S2)c1 (stereo unspecified) ?
57 µM (inactive)

Quick one: GI50 of Cc1ccc(C2=Nc3c(N)nc(N)nc3NC(c3ccccc3)C2)cc1 (stereo unspecified) ?
11.1 µM (inactive)
